Tested on: DLD-1
Experiment: Antiproliferative activity against human BRCA-2 deficient DLD-1 cells
Type: functional, cell-based
ASSAY ENDPOINT: log10 of EC50 (log10 of the value in µM)
Scale type: logarithmic (base 10). Underlying EC50 unit: µM.

STRUCTURE NOTATION	log10 of EC50
Cc1cccc(N(C)C(=O)[C@@H]2C[C@H](O)CN2c2nc(C)cc(C)c2C#N)c1	0.61

Asked: Short answer please: log10 of EC50, DLD-1, entry `CCN(C(=O)[C@@H]1[C@H](O)[C@H](O)C(=O)N1c1cc(C(F)(F)F)cc(C)n1)c1ccc(F)c(Cl)c1`
Given back: 0.84

Asked: Reported log10 of EC50 for DLD-1, given `Cc1cccc(N(C)C(=O)[C@@H]2C[C@H](O)CN2c2nccc(C(F)(F)F)c2C#N)c1` ?
Given back: 1.06

Asked: // map `Cc1cccc(N(C)C(=O)[C@@H]2[C@H](O)CCN2c2nc(C)cc(C(F)(F)F)c2C#N)c1` to recorded log10 of EC50 (system: DLD-1)
Given back: -0.10

Asked: Observed log10 of EC50 on DLD-1 for `Cc1cc(C(F)(F)F)cc(N2C(=O)[C@@H](O)[C@@H](O)[C@H]2C(=O)N(C)c2ccc(F)c(Cl)c2)n1` , please.
Given back: 0.04

Asked: Item `Cc1cc(C(F)(F)F)c(C#N)c(N2C[C@@H](O)C[C@H]2C(=O)N(C)c2ccccc2)n1` with DLD-1 - log10 of EC50?
Given back: 0.90

Asked: Request - read-out log10 of EC50 | tested on DLD-1 | compound `Cc1cccc(N(C)C(=O)[C@@H]2C[C@H](O)CN2c2nc(C)cc(C(F)(F)F)c2C#N)c1`
Given back: 0.36

----------
Assay: Lipophilicity, logD of compound
Assay type: physicochemical
Details: octanol/water
logD for assorted molecules
Give the value as a plain number.

STRUCTURE NOTATION	logD
Cc1cccc(N(C)C(=O)[C@@H]2C[C@H](O)CN2c2nc(C)cc(C(F)(F)F)c2C#N)c1	3.6
CCN(C(=O)[C@@H]1COC(=O)N1c1cc(C(F)(F)F)cc(C)n1)c1ccc(F)c(Cl)c1	4
Cc1cccc(N(C)C(=O)[C@@H]2[C@H](O)CCN2c2nc(C)cc(C(F)(F)F)c2C#N)c1	3.5

Asked: Report logD for `Cc1cc(C(F)(F)F)cc(N2C(=O)[C@@H](O)[C@@H](O)[C@H]2C(=O)N(C)c2ccc(F)c(Cl)c2)n1` please.
Given back: 3

Asked: So what does the record say about logD for `CCN(C(=O)[C@H](CO)Nc1nc(C)cc(C(F)(F)F)c1C#N)c1cccc(C)c1` ?
Given back: 4

Asked: Look up logD: `Cc1cccc(N(C)C(=O)[C@@H]2CCC(=O)N2c2cc(C(F)(F)F)cc(C)n2)c1`
Given back: 3.7

Asked: What logD value was documented for this molecule, `Cc1cccc(N(C)C(=O)[C@@H]2COC(=O)N2c2cc(C(F)(F)F)cc(C)n2)c1` ?
Given back: 3.6

Asked: Which logD reading was recorded for the molecule `Cc1cc(C(F)(F)F)cc(N2C(=O)OC[C@H]2C(=O)N(c2ccc(F)c(Cl)c2)C(C)C)n1` ?
Given back: 4.4

----------
System: DLD-1
Test: Antiproliferative activity against human BRCA-2 deficient DLD-1 cells
Type: functional, cell-based
ASSAY ENDPOINT: pEC50
Hey, just a heads up that pEC50 is the negative log base 10 of the concentration in molar.

Sample records with pEC50:
STRUCTURE NOTATION	MEASURED ON	pEC50
Cc1cc(C(F)(F)F)cc(N2C(=O)C[C@@H](O)[C@H]2C(=O)N(C)c2ccc(F)c(Cl)c2)n1	DLD-1	5.70
CCN(C(=O)[C@H](CO)Nc1nc(C)cc(C(F)(F)F)c1C#N)c1cccc(C)c1	DLD-1	4.96
Cc1cccc(N(C)C(=O)[C@@H]2[C@@H](O)CCN2c2nc(C)cc(C(F)(F)F)c2C#N)c1	DLD-1	5.52

Read the next record carefully.
Asked: # input molecule: `Cc1cccc(N(C)C(=O)[C@@H]2C[C@@H](O)CN2c2nc(C)cc(C(F)(F)F)c2C#N)c1` ; wanted: its pEC50
Given back: 5.22

----------
Test: Volume of distribution at steady state in mouse at 3 mg/kg, iv
Assay type: ADME, organism-based
Settings: in vivo, read-out: Vdss
ASSAY ENDPOINT: Vd

Asked: Report Vd for `Cc1cc(C(F)(F)F)cc(N2C(=O)[C@@H](O)[C@@H](O)[C@H]2C(=O)N(C)c2ccc(F)c(Cl)c2)n1` please.
Given back: 2.5 L/kg

----------
Test: Clearance in rat plasma at 3 mg/kg, iv
Type: ADME, organism-based
ASSAY ENDPOINT: clearance (mL/min/kg)
Supply the numeric figure in mL/min/kg, leaving out any unit text.

Asked: What does the data say about its clearance? Entry: `Cc1cc(C(F)(F)F)cc(N2C(=O)[C@@H](O)[C@@H](O)[C@H]2C(=O)N(C)c2ccc(F)c(Cl)c2)n1`
Given back: 35

----------
Reported log10(IC50) values for a set of molecules
Biological target: DNA polymerase theta (Homo sapiens, UniProt O75417)
Sequence (O75417 whole entry): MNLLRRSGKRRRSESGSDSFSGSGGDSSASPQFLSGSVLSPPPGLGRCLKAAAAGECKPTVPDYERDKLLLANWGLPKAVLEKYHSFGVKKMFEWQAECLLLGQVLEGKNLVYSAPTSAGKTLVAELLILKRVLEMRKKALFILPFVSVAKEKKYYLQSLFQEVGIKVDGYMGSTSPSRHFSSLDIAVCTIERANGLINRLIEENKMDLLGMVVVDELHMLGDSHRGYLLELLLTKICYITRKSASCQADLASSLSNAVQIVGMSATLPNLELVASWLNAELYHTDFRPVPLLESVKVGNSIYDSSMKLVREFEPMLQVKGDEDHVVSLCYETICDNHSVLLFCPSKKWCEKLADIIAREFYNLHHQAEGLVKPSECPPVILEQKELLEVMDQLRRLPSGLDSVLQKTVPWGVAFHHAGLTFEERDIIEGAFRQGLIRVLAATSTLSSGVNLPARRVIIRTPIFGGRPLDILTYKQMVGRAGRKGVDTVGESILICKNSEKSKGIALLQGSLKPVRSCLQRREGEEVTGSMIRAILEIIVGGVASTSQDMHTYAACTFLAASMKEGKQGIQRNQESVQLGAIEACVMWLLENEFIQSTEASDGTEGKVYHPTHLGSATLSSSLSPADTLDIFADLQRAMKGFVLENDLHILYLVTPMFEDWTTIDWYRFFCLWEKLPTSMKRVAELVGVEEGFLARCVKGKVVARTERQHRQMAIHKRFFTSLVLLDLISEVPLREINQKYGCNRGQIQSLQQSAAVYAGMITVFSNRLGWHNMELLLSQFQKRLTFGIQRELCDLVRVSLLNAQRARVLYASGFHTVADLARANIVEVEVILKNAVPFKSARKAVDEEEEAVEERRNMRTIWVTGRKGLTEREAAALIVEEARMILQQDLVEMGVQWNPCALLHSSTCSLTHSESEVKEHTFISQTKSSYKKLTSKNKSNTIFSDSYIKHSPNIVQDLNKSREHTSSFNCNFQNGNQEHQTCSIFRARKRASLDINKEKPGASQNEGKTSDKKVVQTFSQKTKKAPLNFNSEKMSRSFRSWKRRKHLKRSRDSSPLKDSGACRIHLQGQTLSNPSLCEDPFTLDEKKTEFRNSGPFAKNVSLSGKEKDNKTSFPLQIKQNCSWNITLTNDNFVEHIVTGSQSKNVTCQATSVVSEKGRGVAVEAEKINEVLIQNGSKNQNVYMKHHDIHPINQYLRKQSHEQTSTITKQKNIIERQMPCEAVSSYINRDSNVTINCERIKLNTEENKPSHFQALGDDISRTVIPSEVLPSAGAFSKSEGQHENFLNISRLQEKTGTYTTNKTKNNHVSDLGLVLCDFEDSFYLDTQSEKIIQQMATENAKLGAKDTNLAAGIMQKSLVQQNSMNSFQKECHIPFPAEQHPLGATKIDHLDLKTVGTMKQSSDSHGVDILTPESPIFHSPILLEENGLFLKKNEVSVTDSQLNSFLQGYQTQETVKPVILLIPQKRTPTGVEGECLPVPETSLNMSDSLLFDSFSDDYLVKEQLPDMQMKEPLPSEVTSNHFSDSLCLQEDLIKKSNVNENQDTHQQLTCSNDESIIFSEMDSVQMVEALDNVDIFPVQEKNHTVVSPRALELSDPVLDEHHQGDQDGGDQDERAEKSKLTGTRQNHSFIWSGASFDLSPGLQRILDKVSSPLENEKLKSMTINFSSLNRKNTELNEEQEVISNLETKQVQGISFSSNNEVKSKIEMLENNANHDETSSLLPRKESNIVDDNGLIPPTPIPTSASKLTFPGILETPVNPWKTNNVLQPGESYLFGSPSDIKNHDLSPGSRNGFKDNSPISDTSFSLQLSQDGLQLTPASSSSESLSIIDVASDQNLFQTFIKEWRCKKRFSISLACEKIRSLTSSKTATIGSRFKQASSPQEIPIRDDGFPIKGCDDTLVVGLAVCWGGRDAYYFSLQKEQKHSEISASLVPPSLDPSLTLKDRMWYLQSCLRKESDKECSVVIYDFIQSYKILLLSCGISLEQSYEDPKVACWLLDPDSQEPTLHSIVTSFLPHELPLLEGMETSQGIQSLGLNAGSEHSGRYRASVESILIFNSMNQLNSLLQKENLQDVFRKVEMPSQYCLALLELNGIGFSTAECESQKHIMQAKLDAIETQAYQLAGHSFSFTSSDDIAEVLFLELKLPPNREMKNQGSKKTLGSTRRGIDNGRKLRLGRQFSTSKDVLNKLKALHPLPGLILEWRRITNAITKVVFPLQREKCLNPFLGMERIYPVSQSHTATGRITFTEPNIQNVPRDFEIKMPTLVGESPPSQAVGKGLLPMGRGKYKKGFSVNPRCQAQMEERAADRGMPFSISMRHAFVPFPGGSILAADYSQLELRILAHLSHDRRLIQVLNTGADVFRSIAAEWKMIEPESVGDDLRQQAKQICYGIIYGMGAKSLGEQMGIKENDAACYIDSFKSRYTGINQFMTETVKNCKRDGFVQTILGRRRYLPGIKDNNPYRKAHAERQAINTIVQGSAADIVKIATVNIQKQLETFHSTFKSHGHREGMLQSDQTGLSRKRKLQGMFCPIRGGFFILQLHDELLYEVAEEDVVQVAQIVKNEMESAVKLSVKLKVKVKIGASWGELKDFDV
Assay: Inhibition of recombinant human full length DNA polymerase theta using DNA substrate measured after 1 hrs in presence of dNTPs by plate reader assay
Hey, these are logged values: log10 of IC50, nM being the unit before logging.

STRUCTURE NOTATION	ASSAY ENDPOINT	REPORTED
Cc1cc(C(F)(F)F)cc(N2C(=O)OC[C@H]2C(=O)N(C)c2ccc(F)c(Cl)c2F)n1	log10(IC50)	0.73
CCN(C(=O)[C@@H](C)Nc1nc(C)cc(C(F)(F)F)c1C#N)c1cccc(C)c1	log10(IC50)	3.71
CCN(C(=O)COc1nc(C)cc(C)c1C#N)c1cccc(C)c1	log10(IC50)	3.64
CCN(C(=O)COc1nc(C)cc(C(F)(F)F)c1C#N)c1cccc(C)c1	log10(IC50)	2.70

Now consider the entry below.
Asked: Which measured log10(IC50) value corresponds to `Cc1cccc(N(C)C(=O)[C@@H]2CCC(=O)N2c2cc(C(F)(F)F)cc(C)n2)c1` ?
Given back: 0.83

----------
Assay: Oral bioavailability in rat at 10 mg/kg
Assay type: ADME, organism-based
Settings: in vivo
ASSAY ENDPOINT: bioavailability (%)
Report the figure in % without appending any unit label.

Asked: Can you share its bioavailability? I mean this compound: `Cc1cc(C(F)(F)F)cc(N2C(=O)[C@@H](O)[C@@H](O)[C@H]2C(=O)N(C)c2ccc(F)c(Cl)c2)n1`
Given back: 57

----------
Catalogue of pEC50 readings, one per entry.
System: DLD-1
Experiment: Antiproliferative activity against human BRCA-2 deficient DLD-1 cells
Assay type: functional, cell-based
pEC50: −log10 of the molar value.

Previously resolved entries follow.
STRUCTURE NOTATION	pEC50
Cc1cc(C(F)(F)F)cc(N2C(=O)[C@H](O)[C@H](O)[C@@H]2C(=O)N(C)c2ccc(F)c(Cl)c2)n1	< 4.92
CCN(C(=O)COc1nc(C)cc(C(F)(F)F)c1C#N)c1cccc(C)c1	< 4.92

Asked: # query: pEC50 | item `CCN(C(=O)COc1nc(C)cc(C)c1C#N)c1cccc(C)c1` | system: DLD-1
Given back: < 4.92
